target: 5-HT2B (Homo sapiens, UniProt P41595); experiment: Calcium flux (FLIPR) assay, human 5-HT2B stably expressed in HEK-293 (Flp-In-293) cells; settings: EC50, nM 5-HT2B, human 5-HT2B in HEK-293 cells, NA = no activity at 10 μM
Sequence (P41595 whole entry): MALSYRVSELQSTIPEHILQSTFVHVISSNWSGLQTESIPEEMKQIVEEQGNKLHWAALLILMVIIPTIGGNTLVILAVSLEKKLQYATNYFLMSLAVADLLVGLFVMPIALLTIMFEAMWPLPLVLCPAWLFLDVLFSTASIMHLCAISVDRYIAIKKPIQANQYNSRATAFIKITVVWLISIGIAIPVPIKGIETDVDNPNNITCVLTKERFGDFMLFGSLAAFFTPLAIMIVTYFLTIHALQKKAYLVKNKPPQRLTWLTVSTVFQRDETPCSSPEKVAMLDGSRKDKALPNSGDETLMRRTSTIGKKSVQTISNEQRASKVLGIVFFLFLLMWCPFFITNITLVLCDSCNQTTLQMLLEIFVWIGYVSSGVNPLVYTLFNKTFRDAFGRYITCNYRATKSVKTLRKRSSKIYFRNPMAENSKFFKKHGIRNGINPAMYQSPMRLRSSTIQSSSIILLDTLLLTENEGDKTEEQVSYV
So basically, if EC50 comes in under 5000 nM it's Fulfilled, and if it's 5000 nM or more it's Not fulfilled.

These recorded examples may help you get a feel for the data.
INSERT INTO assay_data (compound, class_name) VALUES
  ('C=CCOc1ccc(Cl)c(F)c1C1CC1CN (single isomer, unassigned; (+)) [(+)-Example 32]', 'Not fulfilled'),
  ('NCC1CC1c1c(OCCF)ccc(Cl)c1Cl (single isomer, unassigned; (-)) [(−)-Example 38]', 'Not fulfilled'),
  ('NCC1CC1c1cc(Cl)ccc1OCC(F)F (single isomer, unassigned; (-)) [(−)-Example 21]', 'Fulfilled'),
  ('NCC1CC1c1cc(Cl)c(F)cc1OCCF (single isomer, unassigned; (-)) [(−)-Example 4]', 'Fulfilled'),
  ('CCOc1ccc(Cl)cc1C1CC1CN (single isomer, unassigned; (-)) [(−)-Example 11]', 'Fulfilled');

Moving on to the next compound.
Exercise: hey, is EC50 for CCOc1ccc(F)c(Cl)c1C1CC1CN (single isomer, unassigned; (+)) [(+)-Example 51] lower than 5000 nM or not?
Solution: Fulfilled
